Test system: PPARa:RXRa (NR concentration 270 nM, RXRa partner concentration 90 nM)
Test: PBM binding z-score (relative to random genomic background probes); higher = stronger binding; sequences stand for … in GC…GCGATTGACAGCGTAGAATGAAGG
Quantity name: PBM binding z-score
Provide a numeric answer; units are not to be included.

Provide only the value of recorded PBM binding z-score for CCAGACAGGTGAGAAGGTAACTCATCCTCGATTA 0.773

Provide only the value of recorded PBM binding z-score for TGTTGTAGATCAAAGGTTAAGAAAGCCGAAGCCT 4.47

Provide only the value of recorded PBM binding z-score for TCTAGTTGGTCAAAGGTGACACACTCGAAATGCG 4.71

Provide only the value of recorded PBM binding z-score for CTCGAAAGGTCGTGCTCAGGTGAGCATACCAAAC 4.76

Provide only the value of recorded PBM binding z-score for GCATATAGGTAATACAAGGTTAAAGTCCGATTGT 2.39

Provide only the value of recorded PBM binding z-score for TCTGCTAGGTCAGTTGGTTAGCTAACGAGCTGCC 1.05

Provide only the value of recorded PBM binding z-score for GCTAACGGGTCAAAGGTTATAGCATGAATAGAAT 6.84

Provide only the value of recorded PBM binding z-score for CCTAGTTGGTAAAGGTCACACACGCTATAGGTAC 5.93

Provide only the value of recorded PBM binding z-score for GGAACGAGGGAAAGTTGATAGCAGAGTTTGATGG -0.252

Provide only the value of recorded PBM binding z-score for ATCTCTAGGGAACAAGTTCAGTGAAAGAGAGGAC 0.667

Provide only the value of recorded PBM binding z-score for GGAACGAGGGCATTCGAGTTGATTGCATGGCGAT 1.4

Provide only the value of recorded PBM binding z-score for TCATATAGGTAAAAGGTGTAAGTCGGTGTGGTAA 3.18

Provide only the value of recorded PBM binding z-score for ATCTCTAGGTAACCAAGTTTAGTGAATGCCGAAC 0.803

Provide only the value of recorded PBM binding z-score for CAAACTAGGTCACCGGAAGGTTAAAGTCCGCATG 5.67

Provide only the value of recorded PBM binding z-score for AGAATTAGGTTAAGATCAGGGAAACAGAATACAT 2.94

Provide only the value of recorded PBM binding z-score for TTTATTAGTTGATTAGGGCAACCGAAACAGCGGA 1.15

Provide only the value of recorded PBM binding z-score for CCTACTGGGCCATCAGGTCATTTATATCAACGTT 2.79

Provide only the value of recorded PBM binding z-score for CGCCAAAGTTCAACTAAGGTAACGTAAAGCACGC 5.16

Provide only the value of recorded PBM binding z-score for TGAATGAGGTTAAAGATCAGCGAACGTGGCGTCG 4.55

Provide only the value of recorded PBM binding z-score for CGTCCACGGTCAATGCTAGGTCAGTGAAAGCATT 0.778

Provide only the value of recorded PBM binding z-score for AATACAGGGTCATCGTAGGCCCGAGTACGCACAG 5.82

Provide only the value of recorded PBM binding z-score for GCTATTAGTTGAAAGGTCAACCGAATGATTCTCG 5.77

Provide only the value of recorded PBM binding z-score for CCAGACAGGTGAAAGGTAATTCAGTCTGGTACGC 3.29

Provide only the value of recorded PBM binding z-score for GGAACGAGGGCATTGGAGTTGATAGCATGGCGAT 1.36

Provide only the value of recorded PBM binding z-score for CCTTACGGGTCACGAGATTATAGCACGACGAGCG 5.42

Provide only the value of recorded PBM binding z-score for AGAATGAGGTTATACGTAGATCCGGGAAGAAAGT 3.09
